# key: entry, value: apparent KD of K4 kissing-loop reporter
Tested on: K4 kissing-loop RNA reporter
Test Method Notes: apparent KD of K4 kissing-loop reporter; higher = weaker reporter binding
Assay Setup: Eterna round: R107; input ligand: none

[
  {
    "Sequence Record": "AGGAUCACGUCAGUGAUGUUGACGAGAGAUACCAGAGACGAAAGUCUCCCUUGGCAGCUCAUCGUGAUCCGUGACAAAGGUCACA [Omei KL hio A SS C v4]",
    "apparent KD of K4 kissing-loop reporter": "317 nM"
  },
  {
    "Sequence Record": "AUCGUUGCCAUUAGGACAUACGGUCCUGAACGAGGACCGGUACGGCCGCCACUCGAGCACACGAGUGAUGUUCGUGGGCAACGAU [Tryp A SS t1]",
    "apparent KD of K4 kissing-loop reporter": "137 nM"
  },
  {
    "Sequence Record": "AGUAGUCGACAAGGAUAUACUAGGAGAGACGUUUGCACAUAACCUGCCCUACGAAGUGAUGUUUCGGUAGAAGGUGUUGGGCUGU [theeternabot_exclusion_KL_FMN_B_34]",
    "apparent KD of K4 kissing-loop reporter": "87.6 nM"
  },
  {
    "Sequence Record": "AUUUUUUUAUCAGGAUAUUAGUGUUGGUUUGUUUUGUUAGUGAUGUUGAUAUUUGUUUUAUGUAUUUAAGAAGGGAUUUAGAUGU [viuupullin]",
    "apparent KD of K4 kissing-loop reporter": "270 nM"
  },
  {
    "Sequence Record": "AAACAUCACUGGGAGUGAUGUUCUCAGUGACGAGGACCGGUACGGCCGCCACUCGCGAGAGAUAUAAUUAAGUAAUGACAUCAUU [Excl Tryptophan A V6]",
    "apparent KD of K4 kissing-loop reporter": "274 nM"
  }
]

Challenge: State the recorded apparent KD of K4 kissing-loop reporter for this entry: GUGCGGUGGAGGUUACCGCUACUCUGAGAAGGAGCGCAGAUGACUGCAGGUAGGUCGCUUAGAGCUUGCAGUGAUGUUGCAAGUU [Anquatbiat]
Response given: 159 nM

====

Test system: K4 kissing-loop RNA reporter;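 note: bound reporter read as fluorescence of individual clusters on recovered sequencing chips by microscopy, with normalized cluster intensities fitted with a binding model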
Test Method Notes: apparent KD of K4 kissing-loop reporter; higher = weaker reporter binding
Assay Setup: Eterna round: R107; input ligand: FMN 200 uM
Form field: apparent KD of K4 kissing-loop reporter (one value per entry).
Give the quantity in nM, number only.

These solved cases illustrate the format of a correct answer.
[
  {
    "Sequence Record": "AAGCUCAGCGUGACUCGAUAAGAGUCACAACGAGGACCGGUACGGCCGCCACUCGAAAUAAGAGAGUGAUGUUCUCGCUGAGCAA [#SwitchBubble 6 #StaticStem #K4Late]",
    "apparent KD of K4 kissing-loop reporter, nM": 631
  },
  {
    "Sequence Record": "CCGGGCGGCCGAAGGAGCGGGCGGACCCGAGUGAUGUUCGGGUGGCCCGUGAGGGCCGGUGCCCAGGUAGGUCGCGGAUCCGCCC [#2 Same State - Arginine B Attempt #3 (HarryS)]",
    "apparent KD of K4 kissing-loop reporter, nM": 155
  },
  {
    "Sequence Record": "UGUGUUGUGUAGUGUUAUGUUUUGAGGGAUACCAGAGUGUUUUUAUUCCCUUGGCAGCUUGAGUGAUGUUUGAUGUUGUUGUUGU [jlljmullin]",
    "apparent KD of K4 kissing-loop reporter, nM": 297
  },
  {
    "Sequence Record": "GAGCCAACCGUCGAUACCAGCCGCACGUCAUUCACUCAAUGCUGAGGAGCCAGUGAUGUUGGCCCUUGGCAGCGAAGCAACGAUC [theeternabot_exclusion_KL_Theo_B_43]",
    "apparent KD of K4 kissing-loop reporter, nM": 97.5
  },
  {
    "Sequence Record": "GCUAUGGUAGGAAGGAGCGCUACUUUGUUUUUACGAGUGAUGUUCGGUAGCAGAGUGUUAAAGCAGGUAGGUCGCCUACUAUAGC [Arginine B K4 19]",
    "apparent KD of K4 kissing-loop reporter, nM": 225
  }
]

Here's the next entry for you.
Challenge: Returns the measured apparent KD of K4 kissing-loop reporter for the input sequence. Input: `GGCAUCCAUGGACAUAGUGAUGUUAUGUGCCGAGGACCGGUACGGCCGCCACUCGACCAUGGAUGCCGCAAUCGGAAACGAUUGC`
Response given: 1090
